pKi: −log10 of the molar value.
The entries that follow carry pKi values tested on Mcl-1 (Homo sapiens, UniProt Q07820), drawn from several published reports.

compound: CC1(C)CCC(CN2CCN(c3ccc(C(=O)NS(=O)(=O)c4ccc(NC[C@H]5CC[C@@](C)(O)CC5)c([N+](=O)[O-])c4)c(Oc4cnc5[nH]ccc5c4)c3)CC2)=C(c2ccc(Cl)cc2)C1
resultOperator: <
pKi: 6.36
//
compound: CCOC(=O)c1c(C)oc2c1c(C(c1ccncc1)N1CCN(C)CC1)c(O)c1ccccc12 (stereo not shown)
resultOperator: =
pKi: 7.70
//
compound: O=S(=O)(NCc1ccc(CN(Cc2ccc(F)cc2)S(=O)(=O)c2cc(Cl)cc(Cl)c2O)cc1)c1cc(Cl)cc(Cl)c1
resultOperator: =
pKi: 6.55
//
compound: COC(=O)c1c(C)oc2c1c(C(c1ccncc1)N1CCN(C)CC1)c(O)c1ccccc12 (stereo not shown)
resultOperator: =
pKi: 7.82

---

pKi: −log10 of the molar value.
The entries that follow carry pKi values tested on Mcl-1 (Homo sapiens), drawn from several published reports.
propertyName: pKi

compound: COC1CN(C(=O)NS2(=O)=NC(=O)C(C)(C)OCC=CC(OC)C3CCC3CN3CC4(CCCc5cc(Cl)ccc54)COc4ccc2cc43)C1 (stereo not drawn)
result: > 9.00

compound: CCNC(=O)NS1(=O)=NC(=O)C(C)(C)OC/C=C/[C@H](OC)[C@@H]2CC[C@H]2CN2C[C@@]3(CCCc4cc(Cl)ccc43)COc3ccc1cc32 (stereo partly drawn)
result: > 9.00

compound: COC1C=CCOC(C)(C)C(=O)N=S(=O)(NC(=O)N2CC(O)C2)c2ccc3c(c2)N(CC2CCC21)CC1(CCCc2cc(Cl)ccc21)CO3 (stereo not drawn)
result: > 9.00

compound: COc1c(Cl)cc(CN(CCn2ccc3ccccc32)S(=O)(=O)c2cc(C(=O)NCc3ccccc3)cc(Cl)c2O)cc1-c1ccc(Cl)cc1
result: 7.52

compound: CC(C)Cc1ccc(Sc2ccc3c4c(cccc24)C2=NC(=O)C(C#N)=C23)cc1
result: 8.10

compound: Cc1c(-c2c(-c3ccc(F)cc3)cn3ncnc(N[C@@H](Cc4ccccc4OCC4CC4)C(=O)O)c23)ccc(OCCN2CCN(C)CC2)c1Cl (atropisomer, axis not shown; (Sa))
result: < 4.92

---

The entries that follow carry Ki values tested on UniProt Q07820, drawn from several published reports.
propertyName: Ki (µM)

compound: CO[C@H]1/C=C/COC(C)(C)C(=O)N=S(=O)(NC(=O)c2cc(C)n(C)n2)c2ccc3c(c2)N(C[C@@H]2CC[C@H]21)C[C@@]1(CCCc2cc(Cl)ccc21)CO3 (stereo partly drawn)
studyTarget: UniProt Q07820
resultOperator: <
measuredNumber: 0.001
--
compound: N#Cc1ccc(S(=O)(=O)NCc2cccc(CN(Cc3ccc(-c4ccccc4)cc3)S(=O)(=O)c3cc(Cl)cc(Cl)c3O)c2)cc1
studyTarget: UniProt Q07820
resultOperator: =
measuredNumber: 0.06
--
compound: O=S(=O)(c1cc(Cl)cc(Cl)c1)N(CCO)Cc1ccc(CN(Cc2ccc(F)cc2)S(=O)(=O)c2cc(Cl)cc(Cl)c2O)cc1
studyTarget: UniProt Q07820
resultOperator: =
measuredNumber: 0.48
--
compound: Cc1c(-c2c(-c3ccc(F)cc3)cn3ncnc(O[C@H](Cc4ccccc4OCC4CC4)C(=O)O)c23)ccc(OCCN2CCN(C)CC2)c1Cl (atropisomer, axis not shown; (Sa))
studyTarget: UniProt Q07820
resultOperator: =
measuredNumber: 0.205
--
compound: CCN(CC)CCOc1ccc(CN(Cc2cccc(CNS(=O)(=O)c3cc(Cl)cc(Cl)c3O)c2)S(=O)(=O)c2cc(Cl)cc(Cl)c2O)cc1
studyTarget: UniProt Q07820
resultOperator: =
measuredNumber: 1.02
--
compound: O=C(NCc1ccccc1)c1cc(Cl)c(O)c(S(=O)(=O)N(Cc2ccc(F)cc2)Cc2ccc(Oc3ccc(C(F)(F)F)cc3)cc2)c1
studyTarget: UniProt Q07820
resultOperator: =
measuredNumber: 0.04
--
compound: O=S(=O)(c1cc(Cl)cc(Cl)c1O)N(Cc1ccc(F)cc1)Cc1cccc(-c2ccc(Cl)cc2)c1
studyTarget: UniProt Q07820
resultOperator: =
measuredNumber: 0.05
--
compound: CCCCCCCCc1ccc(CN(Cc2cccc(Oc3ccc(F)cc3)c2)S(=O)(=O)c2cc(Cl)cc(Cl)c2O)cc1
studyTarget: UniProt Q07820
resultOperator: =
measuredNumber: 0.04
--
compound: CC(C)c1ccc(Sc2ccc3c4c(cccc24)C2=NC(=O)C(C#N)=C23)cc1
studyTarget: UniProt Q07820
resultOperator: =
measuredNumber: 0.057
--
compound: CO[C@H]1/C=C/COC(C)(C)C(=O)N=S(=O)(NC(=O)c2cnn(C)c2)c2ccc3c(c2)N(C[C@@H]2CC[C@H]21)C[C@@]1(CCCc2cc(Cl)ccc21)CO3 (stereo partly drawn)
studyTarget: UniProt Q07820
resultOperator: <
measuredNumber: 0.001
--
compound: CC(C)CN(Cc1cc(Cl)cc(CN(CC(C)C)S(=O)(=O)c2cc(Cl)cc(Cl)c2O)c1)C(=O)c1cccc(S(=O)(=O)C(F)(F)F)c1
studyTarget: UniProt Q07820
resultOperator: =
measuredNumber: 0.384
--
compound: Cc1c(C(=O)O)n2c3ccc(Cl)c(c13)-c1c(nn(C)c1C)CSCc1cc(n(C)n1)CSc1cc3c(c(c1)OCCC2)CCCC3 (single isomer, unassigned)
studyTarget: UniProt Q07820
resultOperator: =
measuredNumber: 0.00074

---

The entries that follow carry Ki values tested on UniProtKB Q07820, drawn from several published reports.
propertyName: Ki (nM)

compound: CN(C)c1ccc(CNC(=O)c2ccc(CN(Cc3ccc(F)cc3)S(=O)(=O)c3cc(Cl)cc(Cl)c3O)cc2)cc1
propertyName: Ki
resultOperator: =
measuredNumber: 460
//
compound: CN1CCN(Nc2ccc(S(=O)(=O)NC(=O)c3ccc(N4CCN(CC5=C(c6ccc(Cl)cc6)CC(C)(C)CC5)CC4)cc3Oc3cnc4[nH]ccc4c3)cc2[N+](=O)[O-])CC1
propertyName: Ki
resultOperator: >
measuredNumber: 440
//
compound: CC(C)Cc1ccc(Sc2ccc3c4c(cccc24)C2=C(C#N)C(=O)N=C23)cc1
propertyName: Ki
resultOperator: =
measuredNumber: 85
//
compound: CO[C@H]1/C=C/COC(C)(C)C(=O)N=S(=O)(NC(=O)NC2CCOCC2)c2ccc3c(c2)N(C[C@@H]2CC[C@H]21)C[C@@]1(CCCc2cc(Cl)ccc21)CO3 (stereo partly drawn)
propertyName: Ki
resultOperator: >
measuredNumber: 1
//
compound: COc1c(CN(Cc2ccc(F)cc2)S(=O)(=O)c2cc(Cl)cc(Cl)c2O)cccc1-c1ccc(Cl)cc1
propertyName: Ki
resultOperator: =
measuredNumber: 470
//
compound: Cc1c(C(=O)O)n2c3ccc(Cl)c(c13)-c1c(nn(C)c1C)CN(C)Cc1cc(n(C)n1)CSc1cc(c3ccccc3c1)OCCC2 (single isomer, unassigned)
propertyName: Ki
resultOperator: =
measuredNumber: 14
